B1: CHCHD3 (parent)
chain: YSGAYGASVSDEELKRRVAEELAL

# Variants of: B1
# METHOD DESCRIPTION: protein stability index of a GFP-peptide fusion (GPS, HEK-293T) (PSI 1-6); higher = more stable;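 also: lentivirally expressed fusions sorted by FACS into six bins by GFP to DsRed ratio, PSI derived from sequencing read proportions per bin multiplied by bin number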
# ASSAY CONTEXT: c terminus: a fixed tail appended
Field: protein stability index. Provide a value for each of the variants that follow.
Respond using a number only.

Task: Which protein stability index is listed for YSGAYGASVSDEELKRRVAEELAQ [L24Q] ?
Result: 2.63

Task: Which protein stability index is listed for YHGAYGASVSDEELKRRVAEELAL [S2H] ?
Result: 1.38

Task: Which protein stability index is listed for YSGAYGASVSDEELKRRVAEELAT [L24T] ?
Result: 2.48

Task: Which protein stability index is listed for YSQAYGASVSDEELKRRVAEELAL [G3Q] ?
Result: 3.96

Task: Which protein stability index is listed for YSGAYGCSVSDEELKRRVAEELAL [A7C] ?
Result: 1.72

Task: Which protein stability index is listed for YSGEYGASVSDEELKRRVAEELAL [A4E] ?
Result: 3.31

Task: Which protein stability index is listed for YSGAYGASVSDEELKRRVAAELAL [E20A] ?
Result: 2.19

Task: Which protein stability index is listed for YSGAYGASVSDEEWKRRVAEELAL [L14W] ?
Result: 2.34

Task: Which protein stability index is listed for YSGAYGASVSDEELIRRVAEELAL [K15I] ?
Result: 2.5

Task: Which protein stability index is listed for YSGAYGASVSCEELKRRVAEELAL [D11C] ?
Result: 2.39

Task: Which protein stability index is listed for YSGAYGISVSDEELKRRVAEELAL [A7I] ?
Result: 2.71

Task: Which protein stability index is listed for YSGAYGASVYDEELKRRVAEELAL [S10Y] ?
Result: 2.14

Task: Which protein stability index is listed for YSGAYGASVSDEELKRRHAEELAL [V18H] ?
Result: 2.75

Task: Which protein stability index is listed for YSGAYTASVSDEELKRRVAEELAL [G6T] ?
Result: 2.11

Task: Which protein stability index is listed for YSSAYGASVSDEELKRRVAEELAL [G3S] ?
Result: 3.37

Task: Which protein stability index is listed for TSGAYGASVSDEELKRRVAEELAL [Y1T] ?
Result: 4.34

Task: Which protein stability index is listed for YSGAYGASVSDEWLKRRVAEELAL [E13W] ?
Result: 2.56

Task: Which protein stability index is listed for YSGANGASVSDEELKRRVAEELAL [Y5N] ?
Result: 4.55

Task: Which protein stability index is listed for YSGAMGASVSDEELKRRVAEELAL [Y5M] ?
Result: 3.73

Task: Which protein stability index is listed for YSGAYGASVSDEELKRRVAEYLAL [E21Y] ?
Result: 2.45

Task: Which protein stability index is listed for YSGAYGASVSDEELKRRVAWELAL [E20W] ?
Result: 1.85

Task: Which protein stability index is listed for YSGWYGASVSDEELKRRVAEELAL [A4W] ?
Result: 2.11

Task: Which protein stability index is listed for YSGAYGASVSDCELKRRVAEELAL [E12C] ?
Result: 2.2

Task: Which protein stability index is listed for YSGAYGASVSDEELKRRVAEELHL [A23H] ?
Result: 2.71

Task: Which protein stability index is listed for YSGARGASVSDEELKRRVAEELAL [Y5R] ?
Result: 4.59

Task: Which protein stability index is listed for YSGAYGRSVSDEELKRRVAEELAL [A7R] ?
Result: 2.77

Task: Which protein stability index is listed for YSGAYGASVSDEELKRRVAEGLAL [E21G] ?
Result: 3.32

Task: Which protein stability index is listed for YSGAYGASVSDEELKRRVAIELAL [E20I] ?
Result: 2.4

Task: Which protein stability index is listed for FSGAYGASVSDEELKRRVAEELAL [Y1F] ?
Result: 2.71

Task: Which protein stability index is listed for YSGAYGASVSDEMLKRRVAEELAL [E13M] ?
Result: 1.51

Task: Which protein stability index is listed for YSGAYNASVSDEELKRRVAEELAL [G6N] ?
Result: 3.36

Task: Which protein stability index is listed for YSGAYGASMSDEELKRRVAEELAL [V9M] ?
Result: 2.7

Task: Which protein stability index is listed for YSGAYGASVSDETLKRRVAEELAL [E13T] ?
Result: 2.66

Task: Which protein stability index is listed for YSGAYGASVQDEELKRRVAEELAL [S10Q] ?
Result: 2.72

Task: Which protein stability index is listed for YSGAYGASVSDEELKRRVAKELAL [E20K] ?
Result: 2.9

Task: Which protein stability index is listed for YSGAYGASVSDEELKRRVAERLAL [E21R] ?
Result: 2.89

Task: Which protein stability index is listed for YSGAYGASVSDEEFKRRVAEELAL [L14F] ?
Result: 2.53

Task: Which protein stability index is listed for YSGAYGASVSDEELKRRVAEESAL [L22S] ?
Result: 2.4

Task: Which protein stability index is listed for YSGAYGASVSDEELKRRVAEEDAL [L22D] ?
Result: 2.75

Task: Which protein stability index is listed for YSGAYGASVSDEELKRRVATELAL [E20T] ?
Result: 2.26

Task: Which protein stability index is listed for YSGAYGASVSDEELKRRPAEELAL [V18P] ?
Result: 2.58

Task: Which protein stability index is listed for YSGAYGQSVSDEELKRRVAEELAL [A7Q] ?
Result: 3.04

Task: Which protein stability index is listed for YSGAYGASVSDEENKRRVAEELAL [L14N] ?
Result: 2.47

Task: Which protein stability index is listed for YSGAYGASVSDEELKRRVAEELAP [L24P] ?
Result: 2.27

Task: Which protein stability index is listed for YSGAYGASVSDEELKRRVAHELAL [E20H] ?
Result: 2.59

Task: Which protein stability index is listed for YSGAYGASVSDEELKRRVAECLAL [E21C] ?
Result: 3.9
